experimentalSystem: Glutamate NMDA receptor
testSummary: Displacement of [3H]-MK801 from NMDA receptor in Sprague-Dawley rat cerebral cortex by liquid scintillation counting method
Format: tissue-based

compound	Ki [nM]
CNC1(c2ccccc2Cl)CCCCC1=O (stereo unspecified) [KETAMINE]	180

###

experimentalSystem: Glutamate NMDA receptor
testSummary: Displacement of [3H]-MK801 from NMDA receptor in rat striatum incubated for 2 hrs in presence of Mg2+ by scintillation counting method
Assay type: tissue-based
pKi: −log10 of the molar value.

compound	pKi
CNC1(c2ccccc2Cl)CCCCC1=O (stereo unspecified) [KETAMINE]	6.74

###

The molecules listed here are annotated with their pKi.
experimentalSystem: Glutamate NMDA receptor
testSummary: Displacement of [3H]-MK801 from NMDA receptor in rat brain membranes
Assay type: cell membranes, Membrane
pKi: −log10 of the molar value.

molecule	experimentalSystem	pKi
CN[C@@]1(c2ccccc2Cl)CCCCC1=O	Glutamate NMDA receptor	5.59
CN[C@]1(c2ccccc2Cl)CCCCC1=O [ESKETAMINE]	Glutamate NMDA receptor	6.16
N[C@]1(c2ccccc2Cl)CCCCC1=O	Glutamate NMDA receptor	5.65

Just for reference, ChEMBL document CHEMBL4680282 is where these values come from.
